# system.under.test: human GPCR sphingosine 1-phosphate receptor 1 (Homo sapiens)
# Construct: host or cells: CHO
# Sequence (P21453 whole entry): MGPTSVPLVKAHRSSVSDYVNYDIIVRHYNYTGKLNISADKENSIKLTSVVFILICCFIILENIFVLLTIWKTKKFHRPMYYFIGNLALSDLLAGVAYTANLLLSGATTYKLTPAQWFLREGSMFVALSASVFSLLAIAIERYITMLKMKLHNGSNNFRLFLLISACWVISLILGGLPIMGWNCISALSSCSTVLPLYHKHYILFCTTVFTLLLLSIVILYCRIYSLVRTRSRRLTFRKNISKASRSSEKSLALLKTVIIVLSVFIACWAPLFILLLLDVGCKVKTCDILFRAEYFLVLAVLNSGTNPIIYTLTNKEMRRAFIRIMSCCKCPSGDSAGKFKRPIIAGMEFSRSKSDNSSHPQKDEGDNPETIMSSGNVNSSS
# assay.procedure: S1PR1 selectivity Ca2+ flux assay (antagonist readout)
# Assay type: cell-based
# measurement.conditions: antagonist readout, CHO cells overexpressing human S1PR1 and Gq, S1P at EC80 (6 nM); read-out: S1P1 EC50 (nM), S1P1 antagonist EC50
Below, each entry is listed with its recorded EC50.
// units = nM; emit number, no label

1. O=C(O)Cn1nc(Cc2nc3cc(Cl)c(OCC4CC4)cc3[nH]2)c2ccccc2c1=O = 3620
2. O=C(O)Cn1nc(Cc2nc3cc(Cl)c(OCC4CC4)cc3[nH]2)c2c(c1=O)CCCC2 = 1540

Here is another molecule to look at.
Exercise: For N#Cc1cc2[nH]c(Cn3nc(CC(=O)O)c(=O)c4ccccc43)nc2cc1OCC1CC1 , write its EC50.
Solution: 3080

* * *

# system.under.test: S1PR2 (Homo sapiens, UniProt O95136)
# Construct: expressed in transfected cells
# assay.procedure: S1PR2 binding assay (competition with radioactively labeled S1P, SpA)
# measurement.conditions: membranes from stable cell line over expressing S1PR2, SpA beads; read-out: S1P2 EC50 (nM), S1PR2 binding EC50
metric.name: EC50 (nM)
// units = nM; emit number, no label

Please review the following examples before continuing.
1) CC1(C)CCN(C(=O)Cn2nc(Cc3nc4cc(OCC(F)F)c(C#N)cc4[nH]3)c3ccccc3c2=O)CC1 = 270
2) COCCN(C)C(=O)Cn1nc(Cc2nc3cc(OCC(F)F)c(C#N)cc3[nH]2)c2ccccc2c1=O = 307
3) N#CC1(COc2cc3[nH]c(Cc4nn(CC(=O)N5CCOCC5)c(=O)c5ccccc45)nc3cc2Cl)CC1 = 154
4) N#Cc1cc2nc(Cc3nn(CC(=O)N4CCOCC4)c(=O)c4c3CCCC4)[nH]c2cc1OCC(F)(F)F = 93.7
5) CC(C)(C)C(O)CNC(=O)Cn1nc(Cc2nc3cc(OCC(F)F)c(C#N)cc3[nH]2)c2ccccc2c1=O (stereo not shown) = 137

Exercise: For O=C(O)Cn1nc(Cc2nc3nc(OCC4CC4)c(Cl)cc3[nH]2)c2ccccc2c1=O , write its EC50.
Solution: 231

Exercise: For CC1(COc2cc3[nH]c(Cc4nn(CC(=O)N5CCOCC5)c(=O)c5ccccc45)nc3cc2Cl)CC1 , write its EC50.
Solution: 109

* * *

# system.under.test: human GPCR sphingosine 1-phosphate receptor 2 (Homo sapiens)
# Construct: host or cells: CHO
# Sequence (O95136 whole entry): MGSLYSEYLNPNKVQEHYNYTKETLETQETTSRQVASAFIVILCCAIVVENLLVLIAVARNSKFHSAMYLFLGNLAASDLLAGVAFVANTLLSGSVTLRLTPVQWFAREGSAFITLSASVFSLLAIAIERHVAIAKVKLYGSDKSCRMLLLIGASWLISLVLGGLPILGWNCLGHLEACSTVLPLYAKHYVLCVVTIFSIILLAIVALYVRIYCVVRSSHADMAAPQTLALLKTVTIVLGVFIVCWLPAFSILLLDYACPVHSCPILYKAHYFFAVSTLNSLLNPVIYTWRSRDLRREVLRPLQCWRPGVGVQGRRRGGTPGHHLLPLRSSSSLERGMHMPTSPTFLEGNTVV
# assay.procedure: S1PR2 antagonist Ca2+ flux assay
# Type: cell-based
# measurement.conditions: antagonist mode, CHO-S1PR2 cells, S1P at EC80, Ca2+ fluorescence; read-out: S1P2 EC50 (nM), S1P2 antagonist EC50
metric.name: EC50

Please review the following examples before continuing.
1) CC1(Cn2nc(Cc3nc4cc(Cl)c(OC(F)(F)F)cc4[nH]3)c3ccccc3c2=O)COC1 [Compound 36] = ≥ 19900 nM
2) NC(=O)c1ccc2c(=O)n(CC(=O)N3CCOCC3)nc(Cc3nc4cc(OCC(F)F)c(Cl)cc4[nH]3)c2c1 [compound 12] = 276 nM
3) O=C(O)c1cn(Cc2cn3cc(OCC4CC4)c(Cl)cc3n2)c2ccccc2c1=O [Compound 84] = 41.9 nM
4) CCOc1cc2nc(Cc3nn(CC(=O)O)c(=O)c4ccccc34)[nH]c2cc1F [Compound 129] = 79.3 nM

Here is another compound to look at.
Exercise: For N#Cc1cc2[nH]c(Cn3cc(C(=O)O)c(=O)c4ccccc43)nc2cc1OCC(F)F [Compound 80] , write its EC50.
Solution: 42.3 nM

* * *

# system.under.test: S1PR2 (Homo sapiens)
# Construct: expressed in transfected cells
# assay.procedure: S1PR2 binding assay (competition with radioactively labeled S1P, SpA)
# measurement.conditions: membranes from stable cell line over expressing S1PR2, SpA beads; read-out: S1P2 EC50 (nM), S1PR2 binding EC50
# Procedure: The following assay can be used for determination of S1PR2 binding. The binding assay measures the potential to compete with radioactively labeled S1P for binding to the receptor. The assay is performed in a96 well plate where the following reagents are added. […] Plates are read on a Topcount reader (Perkin Elmer) immediately after centrifugation (readout time, 1 min/well).
metric.name: EC50 (nM)
// units = nM; emit number, no label

Please review the following examples before continuing.
1) N#Cc1cc2[nH]c(Cc3nn(CC(=O)N4CC[C@H](O)C4)c(=O)c4ccccc34)nc2cc1OCC(F)F = 221
2) N#Cc1cc2[nH]c(Cc3nn(C4CNC4)c(=O)c4ccccc34)nc2cc1OCC(F)F = 275
3) O=C(O)Cn1nc(Cn2cc3cc(OCC4CC4)c(Br)cc3n2)c2ccccc2c1=O = 49
4) CCS(=O)(=O)C1CCN(C(=O)Cn2nc(Cc3nc4cc(OCC(F)F)c(C#N)cc4[nH]3)c3ccccc3c2=O)CC1 = 1300

Exercise: GET EC50 where system = S1PR2 (Homo sapiens) and item = CC(C)(C)NC(=O)Cn1nc(Cc2nc3cc(OCC(F)F)c(C#N)cc3[nH]2)c2c(c1=O)CCCC2
Solution: 343

Exercise: GET EC50 where system = S1PR2 (Homo sapiens) and item = N#Cc1cc2[nH]c(Cc3nn(CC(=O)N4CCC(O)(C5CC5)C4)c(=O)c4ccccc34)nc2cc1OCC(F)F (stereo not drawn)
Solution: 124

* * *

# system.under.test: S1PR2 (Homo sapiens, UniProt O95136)
# Construct: expressed in transfected cells
# assay.procedure: S1PR2 binding assay (competition with radioactively labeled S1P, SpA)
# measurement.conditions: membranes from stable cell line over expressing S1PR2, SpA beads; read-out: S1P2 EC50 (nM), S1PR2 binding EC50
Mark label 1 only for EC50 values smaller than 100 nM; exact matches and larger values are label 0.

Exercise: Take the molecule COc1ccc2c(=O)n(CC(=O)N3CCOCC3)nc(Cc3nc4cc(Cl)c(OCC(F)F)cc4[nH]3)c2c1 [Compound 30] and say whether its EC50 is less than 100 nM.
Solution: label 1

Exercise: Take the molecule CC(C(=O)N1CCOCC1)n1nc(Cc2nc3cc(OCC4CC4)c(Cl)cc3[nH]2)c2ccccc2c1=O (stereo not drawn) [Compound 155] and say whether its EC50 is less than 100 nM.
Solution: label 0

Exercise: Take the molecule N#Cc1cc2nc(Cc3nn(CC(=O)N(CCO)CC(F)F)c(=O)c4ccccc34)[nH]c2cc1OCC(F)F [Compound 194] and say whether its EC50 is less than 100 nM.
Solution: label 0

Exercise: Take the molecule N#Cc1cc2nc(Cc3nn(CC(=O)NCC4(CO)COC4)c(=O)c4ccccc34)[nH]c2cc1OCC(F)F [Compound 199] and say whether its EC50 is less than 100 nM.
Solution: label 0

* * *

# system.under.test: S1PR2 (Homo sapiens)
# Construct: expressed in transfected cells
# assay.procedure: S1PR2 binding assay (competition with radioactively labeled S1P, SpA)
# measurement.conditions: membranes from stable cell line over expressing S1PR2, SpA beads; read-out: S1P2 EC50 (nM), S1PR2 binding EC50
metric.name: EC50

1. CN(C)CC(C(=O)O)c1nn(Cc2nc3cc(C#N)c(OCC4CC4)cc3[nH]2)c2ccccc2c1=O (stereo not shown) [compound 21] = 30.4 nM

Exercise: For O=C(O)c1nn(Cc2nc3cc(OCC4CC4)c(C(F)(F)F)cc3[nH]2)c2ccccc2c1=O [Compound 104] , write its EC50.
Solution: 22.4 nM

Exercise: For CC(C(=O)O)c1nn(Cc2nc3cc(OCC4CC4)c(C#N)cc3[nH]2)c2ccccc2c1=O (stereo not shown) [Compound 107] , write its EC50.
Solution: 52.9 nM

Exercise: For O=C(Cn1nc(Cn2cc3cc(OCC4CC4)c(Cl)cc3n2)c2ccccc2c1=O)N1CCOCC1 [Compound 148] , write its EC50.
Solution: 32.1 nM

* * *

# system.under.test: S1PR2 (Homo sapiens)
# Construct: expressed in transfected cells
# assay.procedure: S1PR2 binding assay (competition with radioactively labeled S1P, SpA)
# measurement.conditions: membranes from stable cell line over expressing S1PR2, SpA beads; read-out: S1P2 EC50 (nM), S1PR2 binding EC50
# Description: The following assay can be used for determination of S1PR2 binding. The binding assay measures the potential to compete with radioactively labeled S1P for binding to the receptor. The assay is performed in a96 well plate where the following reagents are added. […] Plates are read on a Topcount reader (Perkin Elmer) immediately after centrifugation (readout time, 1 min/well).
Below, each entry is listed with its recorded EC50.
// units = nM; emit number, no label

Please review the following examples before continuing.
1) N#Cc1cc2nc(Cc3nn(CC(=O)O)c(=O)c4ccccc34)[nH]c2cc1OCC(F)F = 159
2) CCC(C(=O)O)c1nn(Cc2cn3cc(OCC4CC4)c(C(F)(F)F)cc3n2)c2ccccc2c1=O (stereo not shown) = 223
3) N#Cc1cc2[nH]c(Cc3nn(CC(=O)NCC(F)F)c(=O)c4ccccc34)nc2cc1OCC(F)F = 330

Exercise: GET EC50 where system = S1PR2 (Homo sapiens) and item = CC(C(=O)O)c1nn(Cc2cn3cc(OCC4CC4)c(C(F)(F)F)cc3n2)c2ccccc2c1=O (stereo not shown)
Solution: 51.1
